test: in vitro; conditions: human, HepG2-A16-CD81EGFP cells, uninfected
For each entry below, report its viability at 48 h, 1 µM value.
# output: number + unit

CC(C)(C)NC(=O)Cn1ccc(=N)c2ccccc21 :: 99%
CC1=C(CC(=O)c2ccc(Cl)cc2)C(=O)c2ccccc2C1=O :: 105%

[Q] Read off the recorded viability at 48 h, 1 µM for COc1cc(Cl)c(C)cc1NC(C)C(=O)Nc1cc(C(F)(F)F)ccc1N1CCOCC1 (stereo not drawn)
[A] 109%

###

tested on: P. berghei-ANKA-GFP-LucCON liver stage parasites in HepG2-A16-CD81EGFP cells; assay: P. berghei liver stage Pb-Luc assay, Method 1 (UCSD, 1536-well); type: cell-based, Plasmodium berghei; details: Plasmodium berghei, 48 h, P. berghei liver stage, 3 µM compound treatment (10 mM stocks), replicate 2, normalized, average of 2 wells on a 1536 well plate; read-out: PbLuc 3uM growth rep2
For each entry below, report its activity at 3 µM value.
Give bare numbers, in %.

Answered cases to consult:
Cc1noc(C)c1CSc1nc2sc3c(c2c(=O)n1C)CCCC3 :: 89
Cc1ccccc1C1C(C#N)=C2N=C(N)c3c(sc4c3CCCCC4)N2C2=C1C(=O)CCC2 (stereo not drawn) :: 94
CCN(CC)CCN1C(=O)c2ccccc2NC1c1ccc(Br)cc1 (stereo not drawn) :: 21
CCOc1ccccc1NC(=O)Cn1c(-c2ccc(Cl)cc2)noc1=O :: 133
O=C(CSc1nc(Nc2ccccc2)nc(N2CCOCC2)n1)Nc1cc(Cl)ccc1O :: 102

[Q] Read off the recorded activity at 3 µM for CCOC(=O)C1CCN(Cc2cc(Cl)c3ccccc3c2O)CC1
[A] 110

###

system: HepG2; conditions: human, hepg2 cells, 48 h
For each entry below, report its Log AC50 (M) value.
Answers are plain numbers, in M.

Cc1cc(OCCn2cc(C(=O)c3ccco3)c3ccccc32)ccc1Cl :: -4.8143
Cc1cc(NC2CCCCC2)nc(NCc2ccccc2)n1 :: -4.4643
CCOc1ccc(Nc2nc(NCC3CCCO3)c3ccccc3n2)cc1 (centres unmarked) :: -4.3643
c1ccc(Nc2nc(NCc3ccco3)c3ccccc3n2)cc1 :: -4.3643
CCN1CCN(c2cc(C)c3cc(NC(=O)/C=C/c4ccc(C)cc4)ccc3n2)CC1 :: -4.3643

Hi there! I need Log AC50 (M) for each item below, if you can.
1. CN1CCN(c2ccc(Nc3ccnc4cc(Cl)ccc34)cc2)CC1
2. O=C(Nc1ccc(Cl)cc1)N1CCC(c2nc(-c3ccccc3Cl)no2)CC1
3. CCCCNc1cc(C)nc(NCc2ccccc2)n1

[A]
1. -4.6143
2. -4.4643
3. -4.4643

###

experiment: in vitro; conditions: human, hepg2-a16-cd81egfp cells, % viability
For each entry below, report its viability at 3 µM value.
Give bare numbers, in %.

Answered cases to consult:
CCOC(=O)c1c(CN2CCN(c3ccccc3)CC2)oc2cc(Br)c(O)cc12 :: 90.6
N=c1n(CCN2CCCCC2)c2ccccc2n1CC(=O)c1ccc(Cl)c(Cl)c1 :: 87.4

In the following, a different compound is considered.
[Q] Read off the recorded viability at 3 µM for CCOC(=O)c1sc2nc3c(SCCC#N)cc(C(=O)c4cc(F)ccc4O)cn3c(=O)c2c1C
[A] 91.3

###

system: Plasmodium falciparum Dd2-attB (parental line), asexual blood stages; construct: Dd2-attB, the isogenic parental line; experiment: microbe, parasite or virus in culture; set-up: species or system P. falciparum Dd2-attB in human erythrocytes; SYBR Green-I proliferation assay, Dd2-attB parental line, asexual blood stages; conditions: Plasmodium falciparum, DD2, Erythrocyte, 72 h, read-out: Calculated / Average Log AC50 (M), mean of replicates, 72 h (converted)
OBSERVABLE: AC50 (M)
One number for each entry, in M.

CCOC(=O)c1ccnc(-n2ncc(C(=O)OCC)c2-c2ccc(OC)cc2)c1 :: 1.22e-05
COC(=O)c1ccnc2cc(C(OCCN3CCC(F)(F)CC3)c3ccccc3Cl)[nH]c12 (centres unmarked) :: 1.42e-05
O=C(O)c1ccc(O)c2ncc(N3CCN(CCc4ccncc4)CC3)cc12 :: 1e-05
O=C(O)c1ccc(O)c2ncc(N3CCCCC3)cc12 :: 1.65e-05
O=C(O)c1ccnc2cc(C(OCCN3CCC(F)(F)CC3)c3ccccc3Cl)[nH]c12 (centres unmarked) :: 1.53e-05

Hi there! I need AC50 for each item below, if you can.
1. CN1CCC(N2CCCC(CNC(=O)c3cccc(-c4cc(O)c5ncccc5c4)c3)C2)CC1 (centres unmarked)
2. CCOC(=O)c1ccc(O)c2ncc(N3CCC(C(=N)N)CC3)cc12
3. O=C(NC1CCN(C(=O)c2cc(-c3ccccc3)n[nH]2)C1)c1ccccc1 (centres unmarked)
4. CCOC(=O)c1cnn(-c2cc(C(N)=O)ccn2)c1-c1ccc(OC)cc1

[A]
1.85e-05
1.08e-05
1.59e-05
6.33e-06

###

test: in vitro; conditions: human
For each entry below, report its viability at 48 h, 1 µM value.
Answers are plain numbers, in %.

COc1ccc(CN2CCCC(C(=O)c3ccc(Cl)cc3)C2)c(O)c1 (stereo not shown) :: 101

Hi there! I need viability at 48 h, 1 µM for each item below, if you can.
1. CCCCCSc1cc(O)c(C(CNC)C(C)C)cc1OC (stereo not shown)
2. COc1cc2c(cc1OCc1ccccc1)N(C(=O)c1cc3ccccc3[nH]1)CC21CCN(C)CC1
3. COC(=O)[C@H]1[C@H]2C[C@@H]3c4[nH]c5cc(OC)ccc5c4CCN3C[C@H]2C[C@@H](OC(=O)/C=C/c2cc(OC)c(OC)c(OC)c2)[C@@H]1OC

[A]
1. 106
2. 99
3. 106

###

test system: Plasmodium falciparum Dd2-attB-ScDHODH (transgenic line expressing yeast DHODH), asexual blood stages; construct: Dd2-attB-ScDHODH, the transgenic line that expresses yeast DHODH; assay: organism not typed; set-up: replicate k of 3 (each line is one of three independent assays; the three lines of one compound and parasite line follow each other); conditions: 72 h; n = 1; read-out: Individual replicates / Log AC50 (converted)
OBSERVABLE: AC50 (µM)
Numbers only, in µM.

Answered cases to consult:
COc1ccc(NCc2ccc(O)c3ncccc23)nc1 :: 11.3
Oc1ccc(CNc2ccc(F)cc2Cl)c2cccnc12 :: 14.2

Hi there! I need AC50 for each item below, if you can.
1. CC1CN(c2cnc3c(O)ccc(C(=O)O)c3c2)CCN1Cc1ccccc1 (stereo not shown)
2. CC(OCCN1CCCCC1)c1cnn(-c2cc(CO)ccn2)c1-c1cccc(-c2ccccc2)c1 (stereo not shown)
3. Oc1ccc(CNc2ccccc2Cl)c2cccnc12
4. Cn1cnc(-c2nccc3c(O)nc(OCCCC(F)(F)F)nc23)c1
5. CCC(C)C1=N[S+](=O)([O-])c2cc(NC(=O)C3CC3)ccc2N1c1ccccc1 (stereo not shown)

[A]
17.8
3.56
14.2
17.8
8.94

Hi there! I need AC50 for each item below, if you can.
1. O=C(NC1CCN(c2cc(-c3ccc(Cl)cc3)n[nH]2)C1)c1ccccc1 (stereo not shown)
2. CCCOC(c1cc2nccc(C(=O)O)c2[nH]1)c1ccccc1Cl (stereo not shown)
3. O=C(O)c1ccnc2cc(-c3nc4ccccc4n3CCN3CCCCC3)sc12

[A]
1: 12.6; 2: 15.9; 3: 7.1

###

tested on: Plasmodium falciparum Dd2 asexual blood stage parasites; assay: microbe, parasite or virus in culture; set-up: species or system Plasmodium falciparum Dd2 in human erythrocytes; single determination (one 11-point concentration-response curve); conditions: Plasmodium falciparum, DD2, Erythrocyte, 72 h; read-out: AC50
OBSERVABLE: log10 AC50 (log10 of the value in µM)
# log10 transformed; quantity=AC50; unit=µM

Answered cases to consult:
CCN1CCN(C(=O)c2ccc3c(c2)N(Cc2c(F)cccc2Cl)C(=O)c2ccccc2S3)CC1 [NCGC00108184-01] :: -2.07
O=C(c1ccc(OC2CCN(Cc3c[nH]c4ccccc34)CC2)cc1)N1CCCCC1 [NCGC00429064-01] :: 1.18
CCOC(=O)c1ccc(Nc2nc(=O)c(C(C)(C)C)n[nH]2)cc1 [MLS000044326-01] :: 1.12
COc1ccccc1CN1CCOCC2(C1)CN([S+](=O)([O-])c1ccccc1)C2 [NCGC00419002-01] :: 1.09
COC1=CC(=O)C(=C(C)N/N=C(\S)NCCc2ccccc2)C=C1 [MLS001170945-01] :: 0.53
CCn1c(/C=C/c2cc(Br)ccc2O)nc2ccccc2c1=O [MLS001205008-01] :: 0.63

Hi there! I need log10 AC50 for each item below, if you can.
1. c1ccc(Oc2ccc(Nc3cnc4ccc(N5CCOCC5)nn34)cc2)cc1 [NCGC00412601-01]
2. N#Cc1nc(Nc2cc(F)cc(F)c2)c2ncn(CC(F)F)c2n1 [MLS002471784-01]

[A]
1: 0.89; 2: 0.67
